- System: HTT mRNA
- Test Details: RT-qPCR splicing assay monitoring HTT canonical (CJ) and alternative (AJ) junction mRNA in A673 or K562 cells
- Assay type: cell-based
- Measurement Setup: increase in AJ mRNA, 24 hours compound treatment, top dose 10 uM, read-out: HTT AJ AC50
Structures can show the parent of a compound that is named as a salt.
We begin with a simple list: items and their reported AC50.

Some solved cases for reference:
{"columns": ["Compound", "Target", "AC50"],
 "data": [
  ["COc1nc(-c2ccc(N(C)[C@@H]3C[C@H]4CC[C@@H](C3)N4)nn2)cnc1-c1cn[nH]c1 [Compound 260, hydrochloride]", "HTT mRNA", "100 to 1000 nM"],
  ["CN(c1ccc(-c2ccc(-c3cn[nH]c3)c(F)n2)nn1)[C@@H]1C[C@H]2CC[C@@H](C1)N2 [Compound 249, hydrochloride]", "HTT mRNA", "< 100 nM"],
  ["COc1nc(-c2ccc(N(C)C3CC(C)(C)NC(C)(C)C3)nn2)ccc1-c1cn[nH]c1", "HTT mRNA", "100 to 1000 nM"]
]}

Look up AC50 for this compound: CN(c1ccc(-c2ccc(-c3cn[nH]c3)c(Cl)n2)nn1)[C@@H]1C[C@H]2CC[C@@H](C1)N2
< 100 nM

###

- System: HTT
- Test Details: Gene panel canonical junction RT-qPCR assay: HTT
- Type: cell-based
- Measurement Setup: read-out: HTT (IC50, decrease in CJ mRNA levels)
pIC50: −log10 of the molar value.
Readout Label: pIC50

{"columns": ["Compound", "Readout Label", "Measurement"],
 "data": [
  ["CN(c1ccc(-c2ccc(-c3cn[nH]c3)c(C(F)(F)F)n2)nn1)[C@@H]1C[C@H]2CC[C@@H](C1)N2 [Compound 236]", "pIC50", "< 5.00"]
]}

Given the entry COc1nc(-c2ccc(NC3CCNCC3)nn2)ccc1-c1cnn(C)n1 [Compound 270] , report its measured pIC50.
5.00 to 6.00

What value of measured pIC50 is listed for COc1nc(-c2ccc(OC3CC(C)(C)NC(C)(C)C3)nn2)ccc1-n1cccn1 [Compound 271] ?
5.00 to 6.00

###

The molecules listed here are annotated with their AC50.
- System: HTT mRNA
- Test Details: RT-qPCR splicing assay monitoring HTT canonical (CJ) and alternative (AJ) junction mRNA in A673 or K562 cells
- Type: cell-based
- Measurement Setup: decrease in CJ mRNA, 24 hours compound treatment, top dose 10 uM, read-out: HTT CJ AC50

{"columns": ["Structure Smiles", "Measurement"],
 "data": [
  ["CCOc1nc(-c2ccc(N(C)[C@@H]3C[C@H]4CC[C@@H](C3)N4)nn2)ccc1-c1cn[nH]c1", "< 100 nM"],
  ["Cc1nc(-c2ccc(N(C)[C@@H]3C[C@H]4CC[C@@H](C3)N4)nn2)ccc1-c1cn[nH]c1", "1000 to 10000 nM"],
  ["CN(c1ccc(-c2ccc(-c3cn[nH]c3)c(C#N)n2)nn1)[C@@H]1C[C@H]2CC[C@@H](C1)N2", "< 100 nM"]
]}

Data request, read-out AC50, for CN(c1ccc(-c2ccc(-c3cn[nH]c3)c(=O)[nH]2)nn1)[C@@H]1C[C@H]2CC[C@@H](C1)N2
1000 to 10000 nM

Query: AC50; subject: COc1nc(-c2ccc(NC3CCNCC3)nn2)ccc1-c1cnn(C)n1
> 10000 nM

// provenance: patent US20230365526A1
